Biological target: T1, extracellular domain of CD99 (UniProt P14209 23-122, limits assumed)
T1 construct: extracellular domain; also called antigen CD99; purified recombinant extracellular domain of CD99
T1 sequence (looked up): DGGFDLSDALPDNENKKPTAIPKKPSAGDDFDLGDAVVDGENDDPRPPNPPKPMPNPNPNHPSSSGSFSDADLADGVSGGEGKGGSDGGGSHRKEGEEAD
Assay: surface plasmon resonance (BiacoreX), soluble scFv against extracellular domain of CD99
PROPERTY MEASURED: pKd
// pKd: -log10(molar conc.)

{"BINDER": "C3 anti-CD99 scFv (soluble) (scFv, Prior-art scFv; Expressed as soluble scFv in E. coli BL21 (DE3) from PET-28b; also called C3 in CN 110590960 A) scFv: QVQLVQSGAEVKKPGASVKVSCKASGFNIKDTYIHWVRQAPGQGLEWMGRIDPANGNTKYDPKFQGRVTMTRDTSISTAYMELSRLRSDDTAVYYCARRGGVDWGQGTLVTVSSGGGGSGGGGSGGGGSDIVMTQTPLSLSVTPGQPASISCKSSQSLLDGDGKTYLNWLLQKPGQSPQRLIYLVSKLDSGVPDRFSGSGSGTDFTLKISRVEAEDVGVYYCWQGTHFPRTFGQGTKLEIK", "PROPERTY MEASURED": "pKd", "VAL": 6.29}
{"BINDER": "C2 anti-CD99 scFv (soluble) (scFv, Prior-art scFv; Expressed as soluble scFv in E. coli BL21 (DE3) from PET-28b; also called C2 in CN 110590960 A) scFv: EVQLQQSGAELVKPGASVKLSCTASGFNIKDTYIHWVKRRPEQGLEWIGRIDPANGNTKYDPKFQGKATITADTSSNTAYLQLSSLTSEDTAVYYCARRGGVDWGQGTLVTVSAGGGGSGGGGSGGGGSDVVMTQTPLTLSVTIGQPASISCKSSQSLLDGDGKTYLNWLLQRPGQSPKRLIYLVSKLDSGVPDRFTGSGSGTDFTLKISRVEAEDLGVYYCWQGTHFPRTFGGGTKLEIK", "PROPERTY MEASURED": "pKd", "VAL": 6.32}
{"BINDER": "C6 anti-CD99 scFv (soluble) (scFv, Selected from a CD99 phage antibody library; Expressed as soluble scFv in E. coli BL21 (DE3) from PET-28b (Nde I / Xho I) and purified) scFv: EVQLQQSGAELVKPGASVKLSCTASGFNIKDTYIHWVKRRPEQGLEWIGRIDPANGNTKYDPKFQGKATITADTSSNTAYLQLSSLTSEDTAVYYCARRGLDYWGQGTLVTVSAGGGGSGGGGSGGGGSDVVMTQTPLTLSVTIGQPASISCKSSQSLLDGDGKTYLNWLLQRPGQSPKRLIYLVSKLDSGVPDRFTGSGSGTDFTLKISRVEAEDLGVYYCWQGTHFPRTFGGGTKLEIK", "PROPERTY MEASURED": "pKd", "VAL": 6.35}

API: the following record is the query input.
Ask | Form field: reported pKd of C4 anti-CD99 scFv (soluble) (scFv, Prior-art scFv; Expressed as soluble scFv in E. coli BL21 (DE3) from PET-28b) scFv: EVQLQQSGAELVKPGASVKLSCTASGFDIKDTYIHWVKQRPEQGLEWIGRIDPANGDTRYDPEFQGKASLTADTSSNTAYLQFSNLTSEDTAVYYCARRGGLSWGQGTTLTVSSGGGGSGGGGSGGGGSDIQMTQSPASLSASVGETVTITCRASGNIHNYLAWYQQKQGKSPQLLVYNAKTLADGVPSRFSGSGSGTQYSLKINSLQPEDFGSYYCQHFWSTPWTFGGGTKLEIK
Reply | 6.22
